- Target or test system: serotonin 1A receptor (Mus musculus, UniProt Q64264)
- Construct: into the rectum of CD-1 (ICR) male mice (25-45 g); from tissue; host or cells: living CD-1 (ICR) male mice (whole animal)
- Sequence (Q64264 whole entry): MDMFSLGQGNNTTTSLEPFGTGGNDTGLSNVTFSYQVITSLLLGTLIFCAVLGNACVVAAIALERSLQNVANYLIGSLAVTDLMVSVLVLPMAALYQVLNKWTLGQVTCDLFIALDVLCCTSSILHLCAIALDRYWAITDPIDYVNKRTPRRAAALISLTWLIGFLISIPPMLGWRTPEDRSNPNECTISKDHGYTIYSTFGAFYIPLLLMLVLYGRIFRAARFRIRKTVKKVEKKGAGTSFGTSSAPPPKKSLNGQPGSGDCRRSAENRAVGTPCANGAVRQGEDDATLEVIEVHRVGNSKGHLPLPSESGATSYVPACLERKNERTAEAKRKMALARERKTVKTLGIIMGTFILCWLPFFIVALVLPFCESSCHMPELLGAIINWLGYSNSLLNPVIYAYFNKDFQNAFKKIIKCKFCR
- Test method notes: Antagonistic effect on serotonin 1A receptor agonist-induced hypothermia in mouse
- Format: in vivo
- Run parameters: sc, 15 minutes before 8-hydroxy-dipropylaminotetralin 0.5 mg/kg sc, inhibition of hypothermia, CD-1 (ICR) male mice, read-out: ED50
Returns: string. Value is t if measured ED50 is below 0.2 mg/kg, and f if it is greater than or equal to it.

Molecular string: COc1ccc2c(c1CCN1CCC(n3ccc4ccc(C(N)=O)cc43)CC1)CCC2=O
Classification: t

Molecular string: COc1cc2c(cc1CCN1CCC(n3ccc4ccc(C(N)=O)cc43)CC1)N(C(C)=O)CCC2
Classification: f

Molecular string: CCc1nc2ccc(OC)c(CCN3CCC(n4ccc5ccc(C(N)=O)cc54)CC3)c2o1
Classification: f

Molecular string: COc1ccc2nc(C)oc2c1CCN1CCC(n2ccc3ccc(C(N)=O)cc32)CC1
Classification: t

Molecular string: CCN1C(=O)CCc2cc(OC)c(CCN3CCC(n4ccc5ccc(C(N)=O)cc54)CC3)cc21
Classification: f

Molecular string: CNC(=O)c1ccc2ccn(C3CCN(CCc4cc5c(cc4OC)CCN(C)C5=O)CC3)c2c1
Classification: t

Molecular string: COc1ccc2sc(C)nc2c1CCN1CCC(n2ccc3ccc(C(N)=O)cc32)CC1
Classification: f

Molecular string: COc1cc2c(cc1CCN1CCC(n3ccc4ccc(C(N)=O)cc43)CC1)C(=O)CC(C)(C)O2
Classification: f
